biological target: T1, Human VEGFA165 (human, UniProt P15692-4 27-191); experiment: SPR Biacore 8K, VEGFA165 amine-coupled on CM5, nanobody as analyte, 1:1 model
T1 construct: treated as the same molecule; also called antigen VEGFA
T1 sequence (P15692 other isoform, or with tags, fused parts or gaps limits assumed): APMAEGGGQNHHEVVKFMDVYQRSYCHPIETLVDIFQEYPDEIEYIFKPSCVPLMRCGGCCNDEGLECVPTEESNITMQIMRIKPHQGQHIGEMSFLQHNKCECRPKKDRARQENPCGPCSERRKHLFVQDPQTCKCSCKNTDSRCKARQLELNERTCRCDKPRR
ENDPOINT: pKd
pKd here: minus log base 10 of the concentration, concentration in moles per litre.

Give me measured pKd, please, for this binder: V41 (VHH, Purified with C-terminal GGGGS-6×His) VHH: QLQLVESGGGSVQPGGSLRLSCEVSGRTFSSYTMGWFRQAPGKEREFVVAISKGGYKYDSVSLEARFTISKDNTKNTVYLQMNSLKPEDTAVYYCAGTRAYGSSRLRLAKTYEYWGQGTQVTVSS
9.32

Give me measured pKd, please, for this binder: V43 (VHH, Purified with C-terminal GGGGS-6×His) VHH: QLQLVESGGGSVQPGGSLRLSCEVSGRTFTSYTMGWFRQAPGKEREFVVAISKGGYKYDSVSLEARFTISKDNTKNTVYLQMNSLKPEDTAVYYCAGTRAYGSSRLRLANTYEYWGQGTQVTVSS
9.71

Give me measured pKd, please, for this binder: V30 (VHH, Purified with C-terminal GGGGS-6×His; also called candidate antibody V30) VHH: QLQLVESGGGSVQPGGSLRLSCEVSGRTFSSYTMGWFRQAPGKGREFVVAISKGGYKYDAVSLEARFTISKDNTKNTVYLQMNSLKPEDTAVYYCAATRAYGSSRLRLAKTYEYWGQGTQVTVSS
9.67

Give me measured pKd, please, for this binder: V33 (VHH, Purified with C-terminal GGGGS-6×His) VHH: QLQLVESGGGSVQPGGSLRLSCEVSGRTFSSYTMGWFRQAPGKEREFVVAISKGGYKYDSVSLEARFTISKDNTKNTVYLQMNSLKPEDTAVYYCAATRAYGSSRLRLAKTYEYWGQGTQVTVSS
9.28

Give me measured pKd, please, for this binder: V29 (VHH, Purified with C-terminal GGGGS-6×His) VHH: QLQLVESGGGSVQPGGSLRLSCEVSGRTFSSYTMGWFRQAPGKEREFVVAISKGGYKYDSVSLEARFTISKDNTKNTVYLQMNSLKPEDTAVYYCAGTRAYGSSRLRLANTYEYWGQGTQVTVSS
9.36

Give me measured pKd, please, for this binder: V15 (VHH, Purified with C-terminal GGGGS-6×His; also called candidate antibody V15) VHH: QLQLVESGGGSVQPGGSLRLSCEVSGRTFASYTMGWFRQAPGKEREFVVAISKGGYKYDSVSLEARFTISKDNTKNTVYLQMNSLKPEDTAVYYCAGTRAYGSSRLRLAETYEYWGQGTQVTVSS
9.56

Give me measured pKd, please, for this binder: V31 (VHH, Purified with C-terminal GGGGS-6×His) VHH: QLQLVESGGGSVQPGGSLRLSCEVSGRTFASYTMGWFRQAPGKEREFVVAISKGGYKYDAVSLEARFTISKDNTKNTVYLQMNSLKPEDTAVYYCAGTRAYGSSRLRLAKTYEYWGQGTQVTVSS
9.21

Give me measured pKd, please, for this binder: V36 (VHH, Purified with C-terminal GGGGS-6×His) VHH: QLQLVESGGGSVQPGGSLRLSCEVSGRTFASYTMGWFRQAPGKEREFVVAISKGGYKYDSVSLEARFTISKDNTKNTVYLQMNSLKPEDTAVYYCAGTRAYGSSRLRLADTYEYWGQGTQVTVSS
9.55

Give me measured pKd, please, for this binder: V1 (VHH, also called candidate antibody V1; antibody V1) VHH: QLQLVESGGGSVQPGGSLRLSCEVSGRTFSSYTMGWFRQAPGKEREFVVAISKGGYKYDSVSLEARFTISKDNTKNTVYLQMNSLKPEDTAVYYCAATRAYGSSRLRLADTYEYWGQGTQVTVSS
9.61

Give me measured pKd, please, for this binder: V13 (VHH, Purified with C-terminal GGGGS-6×His; also called candidate antibody V13) VHH: QLQLVESGGGSVQPGGSLRLSCEVSGRTFTSYTMGWFRQAPGKEREFVVAISKGGYKYDAVSLEARFTISKDNTKNTVYLQMNSLKPEDTAVYYCAGTRAYGSSRLRLADTYEYWGQGTQVTVSS
9.65

Give me measured pKd, please, for this binder: V40 (VHH, Purified with C-terminal GGGGS-6×His) VHH: QLQLVESGGGSVQPGGSLRLSCEVSGRTFTSYTMGWFRQAPGKEREFVVAISKGGYKYNAVSLEARFTISKDNTKNTVYLQMNSLKPEDTAVYYCAGTRAYGSSRLRLAKTYEYWGQGTQVTVSS
9.52
